Assay Overview: reversal of MRP1-mediated doxorubicin resistance, pilot screen, H69AR cells, doxorubicin co-treatment (AID 601)
Condition Label: H69AR cells, CellTiter-Glo, 72 h; compound alone cytotoxicity; at 10 µM
Measured Endpoint: viability
Please make sure the unit comes right after the number.

Known results for compounds:
> print(dat)
                                   compound  value.observed
1          Cc1ccc(Cl)c(Nc2ccccc2C(=O)O)c1Cl           91.3%
2  CC1=C(C(=O)NCc2ccccn2)C2(CCC(C)CC2)OC1=O (configuration not stated)           89.4%
3  Cn1c(Cl)cnc1C1CC(=O)c2cc(Cl)ccc2O1 (configuration not stated)           2.09%
4  CCCC(=O)Nc1ccccc1-c1nnn(CC(=O)Nc2ccc(OC)cc2)n1           83.1%
5  O=C(CN1CCN(c2ncc(C(F)(F)F)cc2Cl)CC1)Nc1ccc2c(c1)OCO2           93.2%
6  CCCCCCn1c(CN2CCCC(C)C2)nc2c1c(=O)n(C)c(=O)n2C (configuration not stated)            101%

Lab note: measured viability of Cc1nc(-c2cccc(-c3noc(C)n3)c2)no1 was 102%

Lab note: measured viability of COc1ccccc1CCNC(=O)C1CCCO1 (configuration not stated) was 98.9%

Lab note: measured viability of COc1ccc2[nH]c(=O)c(CN(Cc3cccs3)Cc3nnnn3C(C)(C)C)cc2c1 was 73.5%

Lab note: measured viability of COc1ccc(Br)cc1C1N2CC3(C)CN1CC(C)(C2)C3=O (configuration not stated) was 54.3%

Lab note: measured viability of c1cncc(-c2nc3c4ccccc4nc(N4CCC(N5CCCCC5)CC4)n3n2)c1 was 84.1%

Lab note: measured viability of COc1cc(C2N=C(c3ccccc3)NO2)cc(Br)c1O (configuration not stated) was 84.8%

Lab note: measured viability of Cc1cc(C)n2nc[n+](C)c2n1 was 96.4%

Lab note: measured viability of Cc1ccc(C)c(NS(=O)(=O)c2ccc(NC(=O)c3ccco3)cc2)c1 was 90.5%

Lab note: measured viability of CC1CCN(c2oc(-c3cccc4ccccc34)nc2C#N)CC1 was 91.7%

Lab note: measured viability of COCCn1nnnc1SCC(=O)N1CCCCC1 was 99.4%
